MEASUREMENT_PROTOCOL: yeast display, Sf9 membrane polyspecificity reagent, FACS + sequencing; frameworks hold sequencing errors
PROPERTY_NAME: polyreactivity (PSR sort gate)

A selection of reference data follows.
polymer_sequence=QVQLVESGGGLVQAGGSLRLICAASGSIFADYAMGWYRQAPGKERELVAAITGSGGRTYYADSVKGRFTISRDNAKNTVYLQMNSLKPEDTAVYYCAAYQVVWDPYTRYDYWGQGTQVTVSS observed_result="low polyreactivity"
polymer_sequence=QVQLVESGGGLVQAGGSLRLSCAASGSTFVGYAMGWYRQAPGKERELVAAISSSGSTNYADSVKGRFTISRDNAKNTVYLQMNSLKPEDTAVYYCAALYSYFWLIIDYGYWGQGTQVTVSS observed_result="low polyreactivity"
polymer_sequence=QVQLVESGGGLVQAGGSLRLSCAASGSTFYYYAMGWYRQAPGKERELVAVISWGGGSTYYADSVKGRFTISRDNAKNTVYLQMNSLKPEDTAVYYCAAVYDEYQTTHEYDYWGQGTQVTVSS observed_result="low polyreactivity"
polymer_sequence=QVQHVESGGGLVQAGGSLRLSCAASGLTFSQNAMGWYRQPQGQERELVAAISSSGTSTYYADSVKGRFSISRDNAKNTVYLQMNSVKPEDTAVYYCNAPPGTFQWQGHSDYWGQGTQVTVSS observed_result="low polyreactivity"
polymer_sequence=QVQLEESGGGLVQAGGSLRLSCAASGRILAKYAMGWYRPAPRKEREFVDAISYSGGSTYYADSVKGRFTISRDNAKNNVYLLMNRLKPEYTAVYYCAASSYVLYRTRKMYFWGQGTQVTVSS observed_result="high polyreactivity"
polymer_sequence=QVQLVESGGGLVQAGGSLRLSCAASGRIFLYYAMGWYRQAPGKERELVAAITSSGGDTYYADSVKGRFTISRDNAKNTVYLQMNSLKPEDTAVYYCAALGGRYRASTYGYWGQGTQVTVSS observed_result="high polyreactivity"
polymer_sequence=QVQLVESGGGLVQAGGSLRLSCAASGRIFLVYAMGWYRQAPGKERELVAAISWRGGRTYYADSVKGRFTISRDNAKNTVYLQMNSLKPEDTAVYYCAAASKYSQFEYDYWGQGTQVTVSS observed_result="high polyreactivity"
polymer_sequence=QVQLVESGGGLVQAGGSLRLSCAASGRILDYNAMGWYRPAPGKERELVAAITRRGGSTYYADSVKGRFTISRDNAKNTVYLQMNSLKPEDTAVYYCNARWSTTAHTRFGYWGQGTQVTVSS observed_result="low polyreactivity"

(Q) Bench note: what polyreactivity (PSR sort gate) did QVQLVESGGGLVQAGGSLRLSCAASGSTILINAMGWYRQAPGKERELVAAISRDGSTNYADSVKGRFTISRDNAKNTVYLQMNSLKPEDTAVYYCAAVPGISVGRQPGYDYDYWGQGTQVTVSS show?
(A) low polyreactivity

(Q) Note, next up: QVQLVESGGGLVQAGGSLRLSCAASGSTFSSYAMGWYRQAPGKEREIVADINGSGGRTYYADSVKGRFTISRDNAKNTVYLQMNSLKPEDTAVYYCIAYYLQGEYYTEDYWGQGTQVTVSS
(A) low polyreactivity

(Q) Item: QVQLVESGGGVVHAGGSLRLSCAASGRIFRKYAMGWYRQAPGKESEFVAAITWSGGSTYYADSVKGRFTISRDNAKNTVYLQMNSLKPEDTAVYYCNAENGYSWDVFSDYWGQGTQVTVSS
(A) low polyreactivity
